Quick record of pIC50 values for Tyrosine-protein phosphatase non-receptor type 7 (Homo sapiens).
A value of pIC50 is the negative decimal logarithm of a concentration given in moles per litre.

# Compound, pIC50
data = [
    ("N=C(NN=Cc1ccc2c(c1)OCO2)Sc1cc(O)n(-c2ccc(C(=O)O)cc2)c1O", 5.13),
]

Query :: For the compound COC1=CC=CC(/C=N/NC(=O)c2cc3cc([N+](=O)[O-])ccc3s2)C1=O (stereo not drawn) , give its reported pIC50.
Result :: 4.83

Hey, just so you know, these numbers are from BindingDB's records for doi:10.7270/Q2VQ314Z.
